test system: crabgrass (Digitaria sanguinalis); test: Test B pre-/postemergence; format: in vivo; conditions: Rate 62 g/ha, Postemergence
Value type: Crabgrass plant response rating

>>> df
                                        mol  assay_result
0  COc1cnc(-n2ccc(C(F)(F)F)n2)nc1C(=O)c1cccc(C(F)(F)F)c1             2
1  Cc1cnc(-n2cnc(C(F)(F)F)n2)nc1C(=O)c1cccc(C(F)(F)F)c1             7
2  Cc1cnc(-n2ccc(C(F)(F)F)n2)nc1C(=O)c1cccc(OC(F)(F)F)c1             2
3  Cc1cnc(-n2cnc(C(F)(F)F)n2)nc1C(=O)c1cccc(OC(F)(F)F)c1             4
4  Cc1cnc(-n2cnc(C(F)(F)F)c2)nc1C(=O)c1cccc(C(F)(F)F)c1             3

---

System: velvetleaf (Abutilon theophrasti)
Test: Test B pre-/postemergence
Type: in vivo
Details: Rate 250 g/ha, Postemergence
Experimental: […] At the same time, these crop and weed species were also treated with postemergence applications of test chemicals formulated in the same manner. […] Treated plants and controls were maintained in a greenhouse for twelve to sixteen days, after which all species were compared to controls and visually evaluated. […]
Value type: Plant response rating, Velvetleaf

>>> df
                                    molecule                         value_type  assay_result
 0  Cc1cnc(-c2ccc(C(F)(F)F)cc2)nc1Cn1cnc(C(F)(F)F)n1  Plant response rating, Velvetleaf             8
 1  Cc1cnc(-c2ccc(Cl)c(Cl)c2)nc1Cc1cccc(C#N)c1  Plant response rating, Velvetleaf             2
 2  Cc1cnc(-n2ccc(C(F)(F)F)n2)nc1Cc1cccc(C(F)(F)F)c1  Plant response rating, Velvetleaf             9
 3  O=C(c1cccc(C(F)(F)F)c1)c1ccnc(-c2ccc(F)cc2F)n1  Plant response rating, Velvetleaf             1
 4  COC(c1cccc(C(F)(F)F)c1)c1nc(-c2ccc(C(F)(F)F)cc2)ncc1C (racemic)  Plant response rating, Velvetleaf             7
 5  COc1cnc(-n2ccc(C(F)(F)F)n2)nc1C(=O)c1cccc(C(F)(F)F)c1  Plant response rating, Velvetleaf             2
 6  Cc1cnc(-n2cnc(C(F)(F)F)n2)nc1Cn1ccc(C(F)(F)F)n1  Plant response rating, Velvetleaf             9
 7  Cc1cnc(-c2ccc(C(F)(F)F)cc2)nc1Cc1cccc(OC(F)(F)F)c1  Plant response rating, Velvetleaf             8
 8   Cc1cnc(-c2ccc(Cl)cc2F)nc1Cc1cccc(C#N)c1  Plant response rating, Velvetleaf             1
 9  CCc1cnc(-n2ccc(C(F)(F)F)n2)nc1Cc1cccc(C(F)(F)F)c1  Plant response rating, Velvetleaf             9
10  Cc1cnc(-c2ccc(C(F)(F)F)cc2)nc1C(=O)c1cccc(C(F)(F)F)c1  Plant response rating, Velvetleaf             9
11  Cc1cnc(-c2ccc(C(F)(F)F)cc2)nc1Cn1cnc(C(F)(F)F)c1  Plant response rating, Velvetleaf             8
12  Cc1cnc(-c2ccc(C(F)(F)F)cc2)nc1Cn1ccc(C#N)n1  Plant response rating, Velvetleaf             7
13  Cc1cnc(-c2ccc(C#N)cc2)nc1Cc1cccc(C(F)(F)F)c1  Plant response rating, Velvetleaf             8
14  Cc1cnc(-c2ccc(C(F)(F)F)cc2)nc1C(=O)c1cccc(OC(F)(F)F)c1  Plant response rating, Velvetleaf             9
15  Cc1cnc(-c2ccccc2F)nc1Cc1cccc(C(F)(F)F)c1  Plant response rating, Velvetleaf             2
16    Cc1cnc(-c2ccccc2)nc1Cn1ccc(C(F)(F)F)n1  Plant response rating, Velvetleaf             1
17  Cc1cnc(-n2ccc(C(F)(F)C(F)(F)F)n2)nc1C(=O)c1cccc(C(F)(F)F)c1  Plant response rating, Velvetleaf             7

---

system: soybean (Glycine max); test: Test B pre-/postemergence; type: in vivo; set-up: key: 0 is no effect; 10 is complete control; conditions: Rate 250 g/ha, Preemergence
Listing of entries alongside the reported Plant response rating, Soybean.
Value type: Plant response rating, Soybean

                                   molecule                      value_type  assay_result
0  O=C(c1cccc(C(F)(F)F)c1)c1ccnc(-c2ccc(C(F)(F)F)cc2)n1  Plant response rating, Soybean             0
1  Cc1cnc(-c2ccc(F)c(Cl)c2)nc1Cc1cccc(C(F)(F)F)c1  Plant response rating, Soybean             1
2  Cc1cnc(-c2ccc(C(F)(F)F)cc2)nc1C(Cl)c1cccc(C(F)(F)F)c1 (racemic)  Plant response rating, Soybean             0
3  COc1cnc(-c2ccc(C(F)(F)F)cc2)nc1Cc1cccc(C(F)(F)F)c1  Plant response rating, Soybean             1

---

system: bedstraw (Galium aparine); test: Test B pre-/postemergence; type: in vivo; conditions: Rate 125 g/ha, Preemergence
Value type: Bedstraw plant response rating

                                        mol              target_entity                      value_type  assay_result
0  CCc1cnc(-n2cnc(C(F)(F)F)c2)nc1Cc1cccc(OC(F)(F)F)c1  bedstraw (Galium aparine)  Bedstraw plant response rating             7
1  COc1cnc(-c2ccc(C(F)(F)F)cc2)nc1Cc1cccc(C(F)(F)F)c1  bedstraw (Galium aparine)  Bedstraw plant response rating             8
2  Cc1cnc(-n2ccc(C(F)(F)F)n2)nc1Cc1cccc(OC(F)(F)F)c1  bedstraw (Galium aparine)  Bedstraw plant response rating             8
3  Cc1cnc(-c2ccc(Cl)cc2F)nc1Cc1cccc(C(F)(F)F)c1  bedstraw (Galium aparine)  Bedstraw plant response rating             1
4   Cc1cnc(-c2ccc(C#N)cc2)nc1Cc1cccc(C#N)c1  bedstraw (Galium aparine)  Bedstraw plant response rating             0
5  CCc1cnc(-n2ccc(C(F)(F)F)n2)nc1Cc1cccc(C(F)(F)F)c1  bedstraw (Galium aparine)  Bedstraw plant response rating             9
6  Cc1cnc(-c2ccc(Cl)cc2)nc1Cc1cccc(C(F)(F)F)c1  bedstraw (Galium aparine)  Bedstraw plant response rating             4

---

system: broadleaf signalgrass (Brachiaria decumbens); test: Test B pre-/postemergence; type: in vivo; parameters: key: 0 is no effect; 10 is complete control; conditions: Rate 62 g/ha, Preemergence
B. signalgrass plant response rating under 6 gets Criterion met, anything at or over 6 gets Criterion not met.

>>> print(df.to_string())
                                        mol                             target_entity  assigned_category
0  Cc1cnc(-n2ccc(C(F)(F)F)n2)nc1C(=O)c1ccc(C(F)(F)F)cc1  broadleaf signalgrass (Brachiaria decumbens)      Criterion met
1  CCc1cnc(-c2ccc(C(F)(F)F)cc2)nc1Cc1cccc(OC(F)(F)F)c1  broadleaf signalgrass (Brachiaria decumbens)      Criterion met
2  Cc1cnc(-n2ccc(C(F)(F)F)n2)nc1C(=O)c1cccc(C(F)(F)F)c1  broadleaf signalgrass (Brachiaria decumbens)  Criterion not met
3  O=C(c1cccc(C(F)(F)F)c1)c1ccnc(-c2ccc(F)cc2F)n1  broadleaf signalgrass (Brachiaria decumbens)      Criterion met
4  CCc1cnc(-n2ccc(C(F)(F)F)n2)nc1Cc1cccc(OC(F)(F)F)c1  broadleaf signalgrass (Brachiaria decumbens)      Criterion met
5  Cc1cnc(-n2ccc(C(F)(F)F)n2)nc1Cc1cccc(OC(F)(F)F)c1  broadleaf signalgrass (Brachiaria decumbens)  Criterion not met
6  Cc1cnc(-n2ccc(C(F)(F)F)n2)nc1Cn1ccc(C(F)(F)F)n1  broadleaf signalgrass (Brachiaria decumbens)  Criterion not met
7  Cc1cnc(-c2ccc(C(F)(F)F)cc2)nc1Cn1ccc(C#N)n1  broadleaf signalgrass (Brachiaria decumbens)      Criterion met

---

tested on: duck salad (Heteranthera limosa); assay: Test B flood test; type: in vivo; settings: Rate 125 g/ha, Postemergence section (flood test species)
Value type: Ducksalad plant response rating

                                   molecule                       value_type  assay_result
0  Cc1cnc(-n2cnc(C(F)(F)F)c2)nc1C(=O)c1cccc(C(F)(F)F)c1 [Compound 61]  Ducksalad plant response rating             1
1  Cc1cnc(-n2cnc(C(F)(F)F)c2)nc1C(=O)c1cccc(OC(F)(F)F)c1 [Compound 63]  Ducksalad plant response rating             0
2  Cc1cnc(-n2ccc(C(F)(F)F)n2)nc1C(=O)c1cccc(OC(F)(F)F)c1 [Compound 66]  Ducksalad plant response rating             3
3  Cc1cnc(-n2ccc(C(F)(F)C(F)(F)F)n2)nc1C(=O)c1cccc(OC(F)(F)F)c1 [Compound 62]  Ducksalad plant response rating             0
